Molecular target: hNK2R (Homo sapiens, UniProt P21452)
Construct: host or cells: COS-7
Sequence (P21452 whole entry): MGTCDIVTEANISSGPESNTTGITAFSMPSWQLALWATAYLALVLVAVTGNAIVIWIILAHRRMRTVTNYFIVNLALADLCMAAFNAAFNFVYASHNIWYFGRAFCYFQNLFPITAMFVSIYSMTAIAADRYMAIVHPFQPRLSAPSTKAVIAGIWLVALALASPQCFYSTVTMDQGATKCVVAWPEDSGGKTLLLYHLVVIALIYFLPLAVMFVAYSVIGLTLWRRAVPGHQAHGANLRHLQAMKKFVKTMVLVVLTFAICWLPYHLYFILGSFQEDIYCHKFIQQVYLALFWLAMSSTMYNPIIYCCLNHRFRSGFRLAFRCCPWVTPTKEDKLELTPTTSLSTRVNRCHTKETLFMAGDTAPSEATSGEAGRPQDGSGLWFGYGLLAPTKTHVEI
Assay: Indirect human serum albumin binding by IP3 assay, 0.2% ovalbumin vs 1% HSA
Assay type: cell-based
Settings: 1% HSA
Numbered stars: 1 amine (or outer) side, 2 acyl side, 3 side chain; on linkers, the order of the positions; unused ones are H or OH. Square brackets hold non-standard residues; d marks the D form. Peptide text beside a SMILES is read from it. * marks the point of attachment. C18 diacid = O=C(O)CCCCCCCCCCCCCCCCC(=O)*; γGlu = O=C(O)[C@H](CCC(=O)[*:2])N[*:1]; Stearoyl = CCCCCCCCCCCCCCCCCC(=O)*; NMeL = CN[C@@H](CC(C)C)C(=O)O; hSer = N[C@@H](CCO)C(=O)O; Nle = CCCC[C@H](N)C(=O)O; AEEA = NCCOCCOCC(=O)O
A collection of compounds and their measured hNK2R, Albumin binding Efficacy (%)-1% human serum albumin
observation type: hNK2R, Albumin binding Efficacy (%)-1% human serum albumin

# compound, value reported
rows = [
    ("CCCCCCCCCCCCCCCCCC(=O)N[C@@H](CCC(=O)NCCOCCOCC(=O)NCCOCCOCC(=O)N[C@@H](CC(=O)O)C(=O)N[C@@H](CCCCN)C(=O)N[C@@H](Cc1ccc(O)cc1)C(=O)N[C@H](C(=O)NCC(=O)N(C)[C@@H](CC(C)C)C(=O)N[C@@H](CCCC)C(N)=O)C(C)C)C(=O)O [compound 390, *Asp;Lys;Tyr;Val;Gly;NmLeu;Nle;NH2] ({Stearoyl-γGlu-AEEA-AEEA}-DKYVG[NMeL][Nle]-NH2)", 90),
    ("COCC[C@H](NC(=O)[C@H](CC(C)C)N(C)C(=O)CNC(=O)[C@@H](NC(=O)[C@H](Cc1ccc(O)cc1)NC(=O)[C@H](CCCCN)NC(=O)[C@H](CC(=O)O)NC(=O)COCCOCCNC(=O)COCCOCCNC(=O)CC[C@H](NC(=O)CCCCCCCCCCCCCCCCC(=O)O)C(=O)O)C(C)C)C(N)=O [compound 344, *Asp;Lys;Tyr;Val;Gly;NmLeu;Metox;NH2] ({C18 diacid-γGlu-AEEA-AEEA}-DKYVG[NMeL][hSer](Me)-NH2)", 60),
    ("CCCCCCCCCCCCCCCCCC(=O)N[C@@H](CCC(=O)NCCOCCOCC(=O)NCCOCCOCC(=O)N[C@@H](CC(=O)O)C(=O)N[C@@H](CCCCN)C(=O)N[C@@H](Cc1ccc(O)cc1)C(=O)N[C@H](C(=O)NCC(=O)N(C)[C@@H](CC(C)C)C(=O)N[C@@H](CCOC)C(N)=O)C(C)C)C(=O)O [compound 391, *Asp;Lys;Tyr;Val;Gly;NmLeu;Metox;NH2] ({Stearoyl-γGlu-AEEA-AEEA}-DKYVG[NMeL][hSer](Me)-NH2)", 90),
]

Hey, just so you know, these numbers are from patent US20230406883A1.
